Test system: Hepatitis C virus
assay-remarks: Inhibition of Hepatitis C virus genotype 1b NS5B RNA-dependent RNA polymerase using [33P]ATP after 90 mins by phosphoimaging
Set-up: species or system Hepatitis C virus subtype 1b
run-conditions: 1.5 h
pIC50: −log10 of the molar value.
Each item that follows carries a reported pIC50.
measure-name: pIC50

| substance-smiles | result |
| --- | --- |
| N#C[C@@]1(c2ccc3c(N)ncnn23)O[C@H](COP(=O)(O)OP(=O)(O)OP(=O)(O)O)[C@@H](O)[C@H]1O | 5.25 |
| C[C@@]1(c2ccc3c(N)ncnn23)O[C@H](COP(=O)(O)OP(=O)(O)OP(=O)(O)O)[C@@H](O)[C@H]1O | 4.70 |
| C#C[C@@]1(c2ccc3c(N)ncnn23)O[C@H](COP(=O)(O)OP(=O)(O)OP(=O)(O)O)[C@@H](O)[C@H]1O | 3.63 |
| C=C[C@@]1(c2ccc3c(N)ncnn23)O[C@H](COP(=O)(O)OP(=O)(O)OP(=O)(O)O)[C@@H](O)[C@H]1O | 3.75 |

###

Tested on: Huh-7
assay-remarks: Cytotoxicity against human HuH7 cells by MTS assay
Format: cell-based
run-conditions: huh-7
Each item that follows carries a reported CC50.

| substance-smiles | CC50 [µM] |
| --- | --- |
| CC(C)(C)C(=O)SCCOP(=O)(OCCSC(=O)C(C)(C)C)OC[C@H]1O[C@@](C#N)(c2ccc3c(N)ncnn23)[C@H](O)[C@@H]1O | 3.2 |
| C=C[C@@]1(c2ccc3c(N)ncnn23)O[C@H](COP(=O)(OCCSC(=O)C(C)(C)C)OCCSC(=O)C(C)(C)C)[C@@H](O)[C@H]1O | 12 |
| CC(C)(C)C(=O)SCCOP(=O)(OCCSC(=O)C(C)(C)C)OC[C@H]1O[C@@](C)(c2ccc3c(N)ncnn23)[C@H](O)[C@@H]1O | 0.73 |
| C#C[C@@]1(c2ccc3c(N)ncnn23)O[C@H](COP(=O)(OCCSC(=O)C(C)(C)C)OCCSC(=O)C(C)(C)C)[C@@H](O)[C@H]1O | 26 |

###

Each item that follows carries a reported selectivity ratio.
assay-remarks: Selectivity ratio of CC50 for human HuH7 cells to EC50 for Hepatitis C virus genotype 1b
Type: ADME, cell-based, Huh-7
run-conditions: read-out: Ratio CC50/EC50
measure-name: selectivity ratio

| substance-smiles | result |
| --- | --- |
| CC(C)(C)C(=O)SCCOP(=O)(OCCSC(=O)C(C)(C)C)OC[C@H]1O[C@@](C)(c2ccc3c(N)ncnn23)[C@H](O)[C@@H]1O | < 10 |
| C#C[C@@]1(c2ccc3c(N)ncnn23)O[C@H](COP(=O)(OCCSC(=O)C(C)(C)C)OCCSC(=O)C(C)(C)C)[C@@H](O)[C@H]1O | < 10 |
| C=C[C@@]1(c2ccc3c(N)ncnn23)O[C@H](COP(=O)(OCCSC(=O)C(C)(C)C)OCCSC(=O)C(C)(C)C)[C@@H](O)[C@H]1O | < 10 |
| CC(C)(C)C(=O)SCCOP(=O)(OCCSC(=O)C(C)(C)C)OC[C@H]1O[C@@](C#N)(c2ccc3c(N)ncnn23)[C@H](O)[C@@H]1O | 40 |

###

Tested on: HeLa
assay-remarks: Cytotoxicity against human HeLa cells by MTS assay
Assay type: cell-based
measure-name: CC50

| substance-smiles | result |
| --- | --- |
| N#C[C@@]1(c2ccc3c(N)ncnn23)O[C@H](CO)[C@@H](O)[C@H]1O | > 30 µM |

###

Test system: Yellow fever virus
assay-remarks: Antiviral activity against Yellow fever virus 17D infected in human HeLa cells assessed as inhibition of virus induced cytopathic effect after 24 hrs by MTS assay
Assay type: functional, cell-based
measure-name: EC50 (µM)

| substance-smiles | measure-name | result |
| --- | --- | --- |
| N#C[C@@]1(c2ccc3c(N)ncnn23)O[C@H](CO)[C@@H](O)[C@H]1O | EC50 | 11 |

###

Test system: Hepatitis C virus
assay-remarks: Antiviral activity against Hepatitis C virus genotype 1b infected in human HuH7 cells assessed as inhibition of virus induced cytopathic effect after 24 hrs by MTS assay
Assay type: functional, organism-based, Hepacivirus hominis
run-conditions: Huh-7, 24 h
pEC50: −log10 of the molar value.
Each item that follows carries a reported pEC50.

| substance-smiles | qualifier-operator | pEC50 |
| --- | --- | --- |
| C=C[C@@]1(c2ccc3c(N)ncnn23)O[C@H](CO)[C@@H](O)[C@H]1O | < | 4.05 |
| CC(C)(C)C(=O)SCCOP(=O)(OCCSC(=O)C(C)(C)C)OC[C@H]1O[C@@](C)(c2ccc3c(N)ncnn23)[C@H](O)[C@@H]1O | = | 7.11 |
| C#C[C@@]1(c2ccc3c(N)ncnn23)O[C@H](CO)[C@@H](O)[C@H]1O | < | 4.05 |
| C#C[C@@]1(c2ccc3c(N)ncnn23)O[C@H](COP(=O)(OCCSC(=O)C(C)(C)C)OCCSC(=O)C(C)(C)C)[C@@H](O)[C@H]1O | = | 5.22 |
| CC(C)(C)C(=O)SCCOP(=O)(OCCSC(=O)C(C)(C)C)OC[C@H]1O[C@@](C#N)(c2ccc3c(N)ncnn23)[C@H](O)[C@@H]1O | = | 7.07 |
| C=C[C@@]1(c2ccc3c(N)ncnn23)O[C@H](COP(=O)(OCCSC(=O)C(C)(C)C)OCCSC(=O)C(C)(C)C)[C@@H](O)[C@H]1O | = | 5.46 |

###

Each item that follows carries a reported CC50.
assay-remarks: Cytotoxicity against human HuH7 cells by MTS assay
Format: cell-based, Huh-7
run-conditions: HuH7 cells

| substance-smiles | CC50 |
| --- | --- |
| C[C@@]1(c2ccc3c(N)ncnn23)O[C@H](CO)[C@@H](O)[C@H]1O | > 45 µM |
| N#C[C@@]1(c2ccc3c(N)ncnn23)O[C@H](CO)[C@@H](O)[C@H]1O | > 89 µM |
| C=C[C@@]1(c2ccc3c(N)ncnn23)O[C@H](CO)[C@@H](O)[C@H]1O | > 89 µM |
| C#C[C@@]1(c2ccc3c(N)ncnn23)O[C@H](CO)[C@@H](O)[C@H]1O | > 89 µM |

Origin of measurements: ChEMBL document CHEMBL2016498
